Listed below: soluble fraction (log2) values for each entry.
- procedure summary: soluble fraction after stress (log2 fold change); higher = more stays soluble; pooled small domains, quantitative proteomics
- experimental setup: stress: pH 4
Write no unit; give the number alone.

Sample records with soluble fraction (log2):
Q. Check the records and state soluble fraction (log2) for HMPQGFEDLTEREREVLTLIAEGRTNQEIADALVISIKTVNRHRENIMAKLNLHSRVELVRYAIAQGLI
A. -0.723

Q. Check the records and state soluble fraction (log2) for HMNMLGSNIKYLRNRHKLSQQELSEKLGVPRSSLSDYERGHTQVGLDSLIKLADIFDVKIDDLLRSNLSHR
A. -0.261

Q. Check the records and state soluble fraction (log2) for HMTINQIDPASGRKVGYWIITGEMKPKEGFSPDNKIEEGIYVNSRKSGKWIKYWPNGNVRSEIIYKNGR
A. -0.0109

Q. Check the records and state soluble fraction (log2) for HMSASNSIDFANRMIYNKNQVAVFNFGKHMGRPVLEVLKSDPSYYDWMMKGDFPMDTKRKLTEIKLQGF
A. -0.173

Q. Check the records and state soluble fraction (log2) for HMEYYEDEELDRFRGRNSDQYSDAEIEEFNEILTTLRSEEVAGWIRSLQLREIALPDELKDDVILLVG
A. -1.51

Next:
Q. Check the records and state soluble fraction (log2) for HMKNLTERQQQIIALISGNPLITRAEIASAIGFSVKTIERELSILSEIVSYVGSKKGGHWEIQT
A. -0.49

Q. Check the records and state soluble fraction (log2) for HMAPLAVIFPEPWRGMIAPEKLEGLTQALSLNPRPGYQHDPTRRYGVSLDGLDVRFTIDGDTLTVVEVVT
A. -1.12

Q. Check the records and state soluble fraction (log2) for HMSEEELETSGLVKRSAKGNLYDIFRHRVMVPIIDVRGAIIAFGGRVLDDSKPKYINSPETMVY
A. 0.0468

Q. Check the records and state soluble fraction (log2) for HMFFDKIIVDFLADGSRIDKYISTLYPDISRTHIQRLIAEQFILVNDSVVKSNYKLSTNDVVLIHIPEA
A. -1.78

Q. Check the records and state soluble fraction (log2) for HMTGMDALIGRRVFVSEEILPGDAGGRVAVDGDSWRAISVGTAKPIPAGTEVRIHGYKSLILEVEPI
A. 0.0974

Q. Check the records and state soluble fraction (log2) for HMESWNRARILEKIRELHAQGVALNNASMRRLGYRGMMEAAARPQNFGSWEAAVRAAGIDYDRV
A. 0.22

Q. Check the records and state soluble fraction (log2) for HMGARHPLPYPFARAHGLLLEADGERSTLWASTNVSPAALSEVMRKYAVDVIEEEPPETLSQRIAAAYAA
A. -0.763

Q. Check the records and state soluble fraction (log2) for HMDTIVHFLSDGRRITVRIKRNARKNIILRPMAADAVSATIPPWLGRRQLSAWLSEREDLLLSVLSRAA
A. -0.736

Values from the domain aggregation screens of Martell et al. (2025)
